- MEASURED ON: native human Bradykinin B1 receptor (Homo sapiens, UniProt P46663)
- Construct: which express native human Bradykinin B1 receptor after induction with human IL-10; Coriell Institute
- TEST: Calcium flux Assay (FLIPR) with human fibroblasts expressing Bradykinin B1 receptor (hB1 IMR-90)
- MEASUREMENT SETUP: IMR-90 human fibroblasts expressing native Bradykinin B1 receptor
- Protocol: Calcium flux Assay (FLIPR) with human fibroblasts expressing Bradykinin B1 receptor (hB1 IMR-90) […] For the assay, IMR-90 fibroblasts were harvested using TrypLE Express (GIBCO/Invitrogen) and seeded into 384-well plates (Corning Cellbinding Surface, Cat. 3683) at a density of 15000 cells/well. […] IC50 values were determined by the same way described for the FLIPR assay with recombinant cells.
OUTCOME MEASURE: pIC50
A value of pIC50 is the negative decimal logarithm of a concentration given in moles per litre.

Documented pIC50 of O=C(Nc1cc(F)c(-c2ccnc(C(F)(F)F)c2)c(-c2nnn[nH]2)c1)C1(c2ccc(F)c(F)c2)CC1 [Example 244] : 6.29

Documented pIC50 of Cc1cncc(-c2ccc(NC(=O)C3(c4cccc(Cl)c4)CC3)cc2-c2nnn[nH]2)c1 [Example 326] : 7.34

Documented pIC50 of CCOc1ccc(-c2ccc(NC(=O)C3(c4cc(Cl)ccc4F)CC3)cc2-c2nnn[nH]2)cn1 [Example 78] : 7.80

New cases:
Documented pIC50 of Cc1ccc(-c2ccc(NC(=O)C3(c4cccc(Cl)c4)CC3)cc2-c2nnn[nH]2)cn1 [Example 208] : 7.95

###

- MEASURED ON: human Bradykinin B1 receptor (Homo sapiens, UniProt P46663)
- Construct: host or cells: CHO-K1
- Sequence (P46663 1-353): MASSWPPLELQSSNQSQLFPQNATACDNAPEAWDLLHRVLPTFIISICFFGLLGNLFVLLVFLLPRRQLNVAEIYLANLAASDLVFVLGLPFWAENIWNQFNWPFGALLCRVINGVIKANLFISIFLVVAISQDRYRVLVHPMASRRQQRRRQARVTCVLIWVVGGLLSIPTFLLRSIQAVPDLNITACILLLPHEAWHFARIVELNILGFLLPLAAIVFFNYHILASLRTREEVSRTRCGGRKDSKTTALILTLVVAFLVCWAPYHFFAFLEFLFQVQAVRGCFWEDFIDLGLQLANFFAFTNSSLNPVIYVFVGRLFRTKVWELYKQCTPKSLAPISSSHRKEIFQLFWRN
- TEST: Calcium flux Assay (FLIPR) with recombinant CHO-K1 cells expressing human Bradykinin B1 receptor, in presence (hB1 IC50) or absence (hB1 free IC50) of 0.1% BSA
- Type: cell-based
- MEASUREMENT SETUP: in presence of 0.1% BSA, read-out: hB1 IC50
Overview of reported IC50 across a group of compounds:
Write down the numeric answer in nM and omit the unit.

`O=C(Nc1cc(-c2nnn[nH]2)c(-c2ccc(C(F)(F)F)nc2)cc1O)C1(c2ccc(Cl)cc2F)CC1` on human Bradykinin B1 receptor (Homo sapiens, UniProt P46663) gives IC50 = 160

`O=C(Nc1ccc(-c2ccnc(F)c2)c(-c2nnn[nH]2)c1)C1(c2cccc(Cl)c2)CC1` on human Bradykinin B1 receptor (Homo sapiens, UniProt P46663) gives IC50 = 1350

`CCOc1ccc(-c2ccc(NC(=O)C3(c4cc(F)cc(F)c4)CC3)cc2-c2nnn[nH]2)cn1` on human Bradykinin B1 receptor (Homo sapiens, UniProt P46663) gives IC50 = 41.8

New cases:
`CCOc1ccc(-c2cc(F)c(NC(=O)C3(c4cccc(Cl)c4)CC3)cc2-c2nnn[nH]2)cn1` on human Bradykinin B1 receptor (Homo sapiens, UniProt P46663) gives IC50 = 1770

###

Overview of reported pIC50 across a group of compounds:
- MEASURED ON: human Bradykinin B1 receptor (Homo sapiens, UniProt P46663)
- Construct: host or cells: CHO-K1
- TEST: Calcium flux Assay (FLIPR) with recombinant CHO-K1 cells expressing human Bradykinin B1 receptor, in presence (hB1 IC50) or absence (hB1 free IC50) of 0.1% BSA
- Format: cell-based
- MEASUREMENT SETUP: in absence of 0.1% BSA, read-out: hB1 free IC50
A value of pIC50 is the negative decimal logarithm of a concentration given in moles per litre.

Documented pIC50 of O=C(Nc1ccc(-c2ccnc(C(F)(F)F)c2)c(-c2nnn[nH]2)c1)C1(c2ccc(F)cn2)CC1 [Example 174] : 5.95

Documented pIC50 of CCOc1ccc(-c2ccc(NC(=O)C3(c4ccc(OC(F)(F)F)cc4)CC3)cc2-c2nnn[nH]2)cn1 [Example 74] : 8.11

Documented pIC50 of O=C(Nc1ccc(-c2cnc(C(F)(F)F)nc2)c(-c2nnn[nH]2)c1)C1(c2ccc(Cl)cc2F)CC1 [Example 252] : 7.03

Documented pIC50 of O=C(Nc1ccc(-n2cnc(C(F)(F)F)n2)c(-c2nnn[nH]2)c1)C1(c2ccc(F)c(F)c2)CC1 [Example 358] : 5.53

Documented pIC50 of O=C(Nc1ccc(-n2cc(C(F)(F)F)cn2)c(-c2nnn[nH]2)c1)C1(c2ccc(OC(F)(F)F)cc2F)CC1 [Example 364] : 7.90

Documented pIC50 of CCC(F)(F)c1ccc(-c2ccc(NC(=O)C3(c4ccc(C(F)(F)F)cc4F)CC3)cc2-c2nnn[nH]2)cn1 [Example 286] : 8.36

Documented pIC50 of CCOc1ccc(-c2c(Cl)cc(NC(=O)C3(c4cccc(Cl)c4)CC3)cc2-c2nnn[nH]2)cn1 [Example 247] : 7.70

Documented pIC50 of O=C(Nc1ccc(-c2cc3ccccc3s2)c(-c2nnn[nH]2)c1)C1(c2ccc(F)c(F)c2)CC1 [Example 385] : 7.26

###

- MEASURED ON: native human Bradykinin B1 receptor (Homo sapiens, UniProt P46663)
- Construct: which express native human Bradykinin B1 receptor after induction with human IL-10; Coriell Institute
- Sequence (P46663 1-353): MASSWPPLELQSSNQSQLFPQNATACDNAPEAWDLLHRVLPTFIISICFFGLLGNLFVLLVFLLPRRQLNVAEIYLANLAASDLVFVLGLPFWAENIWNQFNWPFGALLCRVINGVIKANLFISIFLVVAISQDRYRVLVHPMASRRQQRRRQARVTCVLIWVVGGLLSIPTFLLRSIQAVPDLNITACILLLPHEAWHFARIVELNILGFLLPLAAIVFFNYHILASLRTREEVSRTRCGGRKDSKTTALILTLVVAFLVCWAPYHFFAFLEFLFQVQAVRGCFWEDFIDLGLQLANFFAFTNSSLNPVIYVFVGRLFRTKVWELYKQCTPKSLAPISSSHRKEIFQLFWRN
- TEST: Calcium flux Assay (FLIPR) with human fibroblasts expressing Bradykinin B1 receptor (hB1 IMR-90)
- MEASUREMENT SETUP: IMR-90 human fibroblasts expressing native Bradykinin B1 receptor
OUTCOME MEASURE: pIC50
A value of pIC50 is the negative decimal logarithm of a concentration given in moles per litre.

Documented pIC50 of COCc1ccc(-c2ccc(NC(=O)C3(c4ccc(C(F)(F)F)cc4)CC3)cc2-c2nnn[nH]2)cn1 [Example 126] : 7.88

Documented pIC50 of O=C(Nc1ccc(-c2ccc(C(F)F)nc2)c(-c2nnn[nH]2)c1)C1(c2ccc(F)c(F)c2)CC1 [Example 207] : 7.83

Documented pIC50 of CCOc1ccc(-c2ccc(NC(=O)C3(c4ccc(Cl)cc4)CC3)cc2-c2nnn[nH]2)cn1 [Example 100] : 8.05

Documented pIC50 of CCOc1ccc(-c2ccc(NC(=O)C3(c4ccc(C)cc4)CC3)cc2-c2nnn[nH]2)cn1 [Example 99] : 7.93

Documented pIC50 of CCOc1ccc(-c2c(Cl)cc(NC(=O)C3(c4cccc(Cl)c4F)CC3)cc2-c2nnn[nH]2)cn1 [Example 248] : 7.60

Documented pIC50 of COc1cc(-c2ccc(NC(=O)C3(c4ccc(C(F)(F)F)cc4F)CC3)cc2-c2nnn[nH]2)cnc1C(F)(F)F [Example 147] : 7.44

Please look at the following molecule next.
Documented pIC50 of COc1ccc(-c2ccc(NC(=O)C3(c4ccc(Cl)cn4)CC3)cc2-c2nnn[nH]2)cc1OC [Example 23] : 7.45

###

- MEASURED ON: native human Bradykinin B1 receptor (Homo sapiens, UniProt P46663)
- Construct: which express native human Bradykinin B1 receptor after induction with human IL-10; Coriell Institute
- TEST: Calcium flux Assay (FLIPR) with human fibroblasts expressing Bradykinin B1 receptor (hB1 IMR-90)
- MEASUREMENT SETUP: IMR-90 human fibroblasts expressing native Bradykinin B1 receptor
- Method: Calcium flux Assay (FLIPR) with human fibroblasts expressing Bradykinin B1 receptor (hB1 IMR-90) […] For the assay, IMR-90 fibroblasts were harvested using TrypLE Express (GIBCO/Invitrogen) and seeded into 384-well plates (Corning Cellbinding Surface, Cat. 3683) at a density of 15000 cells/well. […] IC50 values were determined by the same way described for the FLIPR assay with recombinant cells.
Overview of reported pIC50 across a group of compounds:
A value of pIC50 is the negative decimal logarithm of a concentration given in moles per litre.

// worked examples, pIC50 included
Documented pIC50 of `CCOc1ccc(-c2ccc(NC(=O)C3(c4cccc(C)c4)CC3)cc2-c2nnn[nH]2)cn1` : 7.60

Documented pIC50 of `O=C(Nc1ccc(-c2ccc(C(F)(F)F)nc2)c(-c2nnn[nH]2)c1)C1(c2ccc(F)c(Cl)c2)CC1` : 7.04

Documented pIC50 of `O=C(Nc1ccc(-c2cnc(C(F)(F)F)nc2)c(-c2nnn[nH]2)c1)C1(c2ccc(C(F)(F)F)cc2F)CC1` : 6.69

Documented pIC50 of `COc1ccc(-c2ccc(NC(=O)C3(C4CCC(C)(C)CC4)CC3)cc2-c2nnn[nH]2)cc1OC` : 7.69

New cases:
Documented pIC50 of `CCOc1ccc(-c2ccc(NC(=O)C3(c4ccc(F)cc4F)CC3)cc2-c2nnn[nH]2)cc1OC` : 7.54

Documented pIC50 of `CCOc1ccc(-c2ccc(NC(=O)C3(c4ccc(F)cc4F)CC3)cc2-c2nnn[nH]2)cn1` : 7.66

Documented pIC50 of `O=C(Nc1ccc(-c2ccc(C(F)(F)F)nc2)c(-c2nnn[nH]2)c1)C1(c2ccc(Cl)c(F)c2)CC1` : 7.36

Data credit: patent US20210317092A1
